- MEASURED_TARGET: human δ opioid receptors (hDOR) (Homo sapiens, UniProt P41143)
- Construct: expressed in transfected cells; host or cells: HN9.10 neuroblastoma cell line, pCDNA3, neomycin-selected clones
- Sequence (P41143 whole entry): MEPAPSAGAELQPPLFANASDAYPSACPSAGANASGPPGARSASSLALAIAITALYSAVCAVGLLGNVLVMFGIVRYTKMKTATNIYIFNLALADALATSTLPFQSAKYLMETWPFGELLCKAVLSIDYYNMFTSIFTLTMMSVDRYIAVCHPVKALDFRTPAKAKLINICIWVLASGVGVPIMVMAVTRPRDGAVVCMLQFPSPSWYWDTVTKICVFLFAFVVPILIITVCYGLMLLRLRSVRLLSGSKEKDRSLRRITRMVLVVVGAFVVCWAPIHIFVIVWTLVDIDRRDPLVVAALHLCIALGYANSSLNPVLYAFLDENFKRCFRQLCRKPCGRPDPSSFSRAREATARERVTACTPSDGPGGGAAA
- METHOD_DESCRIPTION: Radioligand competition binding, [3H]DPDPE, hDOR membranes
Peptide text beside a SMILES is read from it.
OBSERVABLE: Ki (nM)
Give just the number in nM; leave the unit off.

// known answers, use as guide
CC(C)C[C@H](NC(=O)[C@@H]1CCCN1C(=O)[C@H](Cc1ccccc1)NC(=O)[C@H](Cc1ccccc1)NC(=O)CNC(=O)[C@@H](C)NC(=O)[C@@H](N)Cc1ccc(O)cc1)C(=O)N[C@@H](Cc1c[nH]c2ccccc12)C(=O)OCc1ccccc1 [TY014] (HELM PEPTIDE1{Y.[dA].G.F.F.P.L.W.[c1ccc(CO[*:1])cc1]}$$$$V2.0; N-terminus assumed) | 11.5
CCCC[C@@H]1NC(=O)[C@H](Cc2ccccc2)NC(=O)CNC(=O)[C@H](NC(=O)[C@@H](N)Cc2ccc(O)cc2)CSSC[C@H](C(=O)N[C@@H](Cc2c[nH]c3ccccc23)C(=O)NCc2cc(C(F)(F)F)cc(C(F)(F)F)c2)NC(=O)[C@@H]2CCCN2C1=O [TY038, [D-Cys^2, D-Cys^7]TY027] (HELM PEPTIDE1{Y.[dC].G.F.[Nle].P.[dC].W.[FC(F)(F)c1cc(CN[*:1])cc(C(F)(F)F)c1]}$PEPTIDE1,PEPTIDE1,2:R3-7:R3$$$V2.0; N-terminus assumed) | 55.5
CSCC[C@H](NC(=O)[C@H](Cc1ccccc1)NC(=O)CNC(=O)[C@@H](C)NC(=O)[C@@H](N)Cc1ccc(O)cc1)C(=O)N1CCC[C@H]1C(=O)N[C@@H](CC(C)C)C(=O)N[C@@H](Cc1c[nH]c2ccccc12)C(=O)OCc1ccccc1 | 1.3
CC(C)C[C@H](NC(=O)[C@@H]1CCCN1C(=O)[C@H](CC(C)C)NC(=O)[C@H](Cc1ccccc1)NC(=O)CNC(=O)[C@@H](C)NC(=O)[C@@H](N)Cc1ccc(O)cc1)C(=O)N[C@@H](Cc1c[nH]c2ccccc12)C(=O)OCc1cc(C(F)(F)F)cc(C(F)(F)F)c1 | 23.3
CC[C@H](NC(=O)[C@H](Cc1ccccc1)NC(=O)CNC(=O)[C@@H](C)NC(=O)[C@@H](N)Cc1ccc(O)cc1)C(=O)N[C@@H](Cc1c[nH]c2ccccc12)C(=O)OCc1cc(C(F)(F)F)cc(C(F)(F)F)c1 [NP33] (HELM PEPTIDE1{Y.[dA].G.F.[Abu].W.[FC(F)(F)c1cc(CO[*:1])cc(C(F)(F)F)c1]}$$$$V2.0; N-terminus assumed) | 1.6

Provide the reported Ki (system: human δ opioid receptors (hDOR) (Homo sapiens, UniProt P41143)) for CSCC[C@H](NC(=O)[C@H](Cc1ccccc1)NC(=O)CNC(=O)[C@@H](C)NC(=O)[C@@H](N)Cc1c(C)cc(O)cc1C)C(=O)N1CCC[C@H]1C(=O)N[C@@H](CC(C)C)C(=O)N[C@@H](Cc1c[nH]c2ccccc12)C(=O)NCc1ccccc1
0.1

Fill in: Ki on human δ opioid receptors (hDOR) (Homo sapiens, UniProt P41143), entry CCCC[C@@H]1NC(=O)[C@H](Cc2ccccc2)NC(=O)CNC(=O)[C@H](NC(=O)[C@@H](N)Cc2ccc(O)cc2)C(C)(C)SSC(C)(C)[C@@H](C(=O)N[C@@H](Cc2c[nH]c3ccccc23)C(=O)NCc2cc(C(F)(F)F)cc(C(F)(F)F)c2)NC(=O)[C@@H]2CCCN2C1=O [TY047] (HELM PEPTIDE1{Y.[CC(C)(S[*:3])[C@@H](N[*:1])C(=O)[*:2]].G.F.[Nle].P.[Pen].W.[FC(F)(F)c1cc(CN[*:1])cc(C(F)(F)F)c1]}$PEPTIDE1,PEPTIDE1,2:R3-7:R3$$$V2.0; N-terminus assumed)
152

---

- MEASURED_TARGET: rat μ opioid receptors (rMOR) (Rattus norvegicus, UniProt P33535)
- Construct: expressed in transfected cells; host or cells: HN9.10 neuroblastoma cell line, pCDNA3, neomycin-selected clones
- Sequence (P33535 whole entry): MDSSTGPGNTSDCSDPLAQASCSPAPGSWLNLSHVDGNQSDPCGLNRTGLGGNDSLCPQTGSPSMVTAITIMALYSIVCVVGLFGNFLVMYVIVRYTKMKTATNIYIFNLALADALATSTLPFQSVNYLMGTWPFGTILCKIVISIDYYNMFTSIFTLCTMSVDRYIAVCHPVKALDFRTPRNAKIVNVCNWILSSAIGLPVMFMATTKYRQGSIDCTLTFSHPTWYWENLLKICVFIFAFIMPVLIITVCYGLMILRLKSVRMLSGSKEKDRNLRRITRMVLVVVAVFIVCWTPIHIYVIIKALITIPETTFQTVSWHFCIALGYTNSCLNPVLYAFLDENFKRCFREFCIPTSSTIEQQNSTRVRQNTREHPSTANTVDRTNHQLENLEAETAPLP
- METHOD_DESCRIPTION: biochemical
- Assay type: biochemical
- TEST_CONTEXT: read-out: GTP binding rMOR Emax
OBSERVABLE: Emax (%)
Field format: number, assumed %, no unit text.

CSCC[C@H](NC(=O)[C@H](Cc1ccccc1)NC(=O)CNC(=O)[C@@H](C)NC(=O)[C@@H](N)Cc1ccc(O)cc1)C(=O)N1CCC[C@@H]1C(=O)N[C@@H](CC(C)C)C(=O)N[C@@H](Cc1c[nH]c2ccccc12)C(=O)OCc1cc(C(F)(F)F)cc(C(F)(F)F)c1 [TY024] | 28

// next entry
For the molecule CSCC[C@H](NC(=O)[C@H](Cc1ccccc1)NC(=O)CNC(=O)[C@@H](C)NC(=O)[C@@H](N)Cc1ccc(O)cc1)C(=O)N1CCC[C@H]1C(=O)N[C@@H](CC(C)C)C(=O)N[C@@H](Cc1c[nH]c2ccccc12)C(=O)OCc1cc(C(F)(F)F)cc(C(F)(F)F)c1 [TY005] , give its measured Emax value.
45.6

---

Reported logD7.4 values are given for each entry in this list.
- METHOD_DESCRIPTION: Octanol/saline distribution (logD7.4)
- Type: physicochemical
- TEST_CONTEXT: 0.05 N HEPES buffer in 0.1 N NaCl
Reply with just the number.

Return value of logD7.4 for input CC(C)C[C@H](NC(=O)[C@@H]1CCCN1C(=O)[C@H](Cc1ccccc1)NC(=O)CNC(=O)[C@@H](C)NC(=O)[C@@H](N)Cc1ccc(O)cc1)C(=O)N[C@@H](Cc1c[nH]c2ccccc12)C(=O)NCc1ccccc1 , no commentary.
3.3

Look up and state reported logD7.4 for CC(C)C[C@H](NC(=O)[C@@H]1CCCN1C(=O)[C@H](Cc1ccccc1)NC(=O)CNC(=O)[C@@H](C)NC(=O)[C@@H](N)Cc1ccc(O)cc1)C(=O)N[C@@H](Cc1c[nH]c2ccccc12)C(=O)N(C)Cc1ccccc1
3.5

Give a short answer stating reported logD7.4 for CC(C)C[C@H](NC(=O)[C@@H]1CCCN1C(=O)[C@H](Cc1ccccc1)NC(=O)CNC(=O)[C@@H](C)NC(=O)[C@@H](N)Cc1ccc(O)cc1)C(=O)N[C@@H](Cc1c[nH]c2ccccc12)C(=O)OCc1ccccc1 .
3.8

Retrieve logD7.4 measured for CSCC[C@H](NC(=O)[C@H](Cc1ccccc1)NC(=O)CNC(=O)[C@@H](C)NC(=O)[C@@H](N)Cc1ccc(O)cc1)C(=O)N1CCC[C@H]1C(=O)N[C@@H](CC(C)C)C(=O)N[C@@H](Cc1c[nH]c2ccccc12)C(=O)NCc1ccccc1 and print it.
3.6

---

Please consider the recorded pIC50 for human δ opioid receptors (hDOR) (Homo sapiens, UniProt P41143) in what follows.
Peptide text beside a SMILES is read from it.
// pIC50: -log10(molar conc.)

Answered cases to consult:
CCCC[C@@H]1NC(=O)[C@H](Cc2ccccc2)NC(=O)CNC(=O)[C@H](NC(=O)[C@@H](N)Cc2ccc(O)cc2)CSSC[C@@H](C(=O)N[C@@H](Cc2c[nH]c3ccccc23)C(=O)NCc2cc(C(F)(F)F)cc(C(F)(F)F)c2)NC(=O)[C@@H]2CCCN2C1=O [TY035, [D-Cys^2, Cys^7]TY027] (HELM PEPTIDE1{Y.[dC].G.F.[Nle].P.C.W.[FC(F)(F)c1cc(CN[*:1])cc(C(F)(F)F)c1]}$PEPTIDE1,PEPTIDE1,2:R3-7:R3$$$V2.0; N-terminus assumed) | 8.60
CC(C)C[C@H](NC(=O)[C@@H]1CCCN1C(=O)[C@H]1CSSC[C@@H](NC(=O)[C@@H](N)Cc2ccc(O)cc2)C(=O)NCC(=O)N[C@@H](Cc2ccccc2)C(=O)N1)C(=O)N[C@@H](Cc1c[nH]c2ccccc12)C(=O)NCc1cc(C(F)(F)F)cc(C(F)(F)F)c1 [TY037, [D-Cys^2, D-Cys^5]TY027] | 7.80
CC(C)C[C@H](NC(=O)[C@@H]1CCCN1C(=O)[C@@H]1CSSC[C@@H](NC(=O)[C@@H](N)Cc2ccc(O)cc2)C(=O)NCC(=O)N[C@@H](Cc2ccccc2)C(=O)N1)C(=O)N[C@@H](Cc1c[nH]c2ccccc12)C(=O)NCc1cc(C(F)(F)F)cc(C(F)(F)F)c1 | 7.60

We next turn to a different molecule, shown below.
Look up and report pIC50, with human δ opioid receptors (hDOR) (Homo sapiens, UniProt P41143) as system, for CCCC[C@@H]1NC(=O)[C@H](Cc2ccccc2)NC(=O)CNC(=O)[C@H](NC(=O)[C@@H](N)Cc2ccc(O)cc2)CSSC[C@H](C(=O)N[C@@H](Cc2c[nH]c3ccccc23)C(=O)NCc2cc(C(F)(F)F)cc(C(F)(F)F)c2)NC(=O)[C@@H]2CCCN2C1=O [TY038, [D-Cys^2, D-Cys^7]TY027] (HELM PEPTIDE1{Y.[dC].G.F.[Nle].P.[dC].W.[FC(F)(F)c1cc(CN[*:1])cc(C(F)(F)F)c1]}$PEPTIDE1,PEPTIDE1,2:R3-7:R3$$$V2.0; N-terminus assumed)
6.90

Source listed as patent US8026218B2.
